system: UACC-62; test: NCI tumour cell line growth inhibition, 48 h
Active and inactive are the calls of the source. Cut-off read from the data, not from the text of the source: active = GI50 up to about 1.1 µM and inactive = higher. Where a SMILES comes first, the peptide text is derived from it. Bridges are numbered along the chain shown (N, C = ends). The star is where a group is joined. Cbz = O=C(OCc1ccccc1)*

Compound	Assayed target	GI50
N#CC(C#N)=Cc1c(O)ccc2ccccc12	UACC-62	12.9 µM (inactive)
C[C@]12CC[C@H](OC(=O)Nc3ccccc3)CC1=CC[C@@H]1C2CC[C@]2(C)/C(=N/OC(=O)Nc3ccccc3)CCC12 (some centres undefined)	UACC-62	> 100 µM (inactive)
CC(C)C(=O)NS(=O)(=O)c1ccccc1	UACC-62	> 100 µM (inactive)
Cc1ccccc1N(CC(=O)O)S(=O)(=O)c1ccccc1	UACC-62	> 100 µM (inactive)
O[C@@H]1C[C@@H]2N[C@@](O)(C[C@@H]2O)[C@H]1O	UACC-62	> 100 µM (inactive)
COc1ccc2c(C(=O)c3c(C)n(CCN4CCOCC4)c4ccccc34)cccc2c1	UACC-62	18.2 µM (inactive)
N#Cc1c(=O)c2cc([N+](=O)[O-])ccc2n2c1[nH]c1ccccc12	UACC-62	4.59 µM (inactive)
C=C(C)CCC(O)[C@](C)(O)[C@H]1[C@H](O)C[C@@]2(C)[C@@H]3CCc4c(cc(OC5OC(CO)C(O)C(O)C5O)c(O)c4C)C3(C)C(=O)C[C@]12C (some centres undefined)	UACC-62	> 100 µM (inactive)
CC1CCP(=O)(c2ccccc2)c2ccccc21 (centres undefined)	UACC-62	52.8 µM (inactive)
COc1cc2c(cc1O)C(=O)O[C@@H]1CC=C3CCN(C)[C@H]3[C@H]21	UACC-62	> 25 µM (inactive)
O=C(CSc1nc(=O)c(-c2ccccc2NC(=O)C(F)(F)F)n[nH]1)NC(=O)Nc1ccccc1	UACC-62	50 µM (inactive)
N#C/N=C(/NCCc1c[nH]c2ccccc12)Oc1ccccc1	UACC-62	75.3 µM (inactive)
CCO[C@]12CCC[C@H]1[C@@H]1C(=O)c3ccccc3C(=O)C1=C(C)O2	UACC-62	> 100 µM (inactive)
O=C1c2ccoc2C(=O)c2oc(=O)ccc21	UACC-62	17.1 µM (inactive)
CC12CC(=O)C3C(CCC4=CC(=O)CCC43C)C1CC=C2CC(=O)O (centres undefined)	UACC-62	> 100 µM (inactive)
COc1cc(NS(=O)(=O)c2ccc(C)cc2)c2nccnc2c1	UACC-62	14.8 µM (inactive)
COC(=O)C12CCCN1CCC2	UACC-62	> 100 µM (inactive)
O=S(=O)([C-]([I+]c1ccccc1)S(=O)(=O)C(F)(F)C(F)(F)C(F)(F)C(F)(F)F)C(F)(F)C(F)(F)C(F)(F)C(F)(F)F	UACC-62	17.9 µM (inactive)
c1ccc(CSC2(SCc3ccccc3)CCCCC2)cc1	UACC-62	> 10 µM (inactive)
COC(=O)C1CCCCNC(=O)CCC(NC(=O)OCc2ccccc2)C(=O)N1 (stereo not drawn) (Cbz-Glu-Lys-OMe; lactam 1-2; configuration not given here)	UACC-62	> 100 µM (inactive)
Cc1cc2c(cc1Br)C1(C)CCC(C)C1(C)O2 (centres undefined)	UACC-62	44 µM (inactive)
COc1ccc2c3c(coc13)C(CCC(=O)O)CC2 (centres undefined)	UACC-62	> 100 µM (inactive)
OCCCCn1cc(Cn2ncc3c(SCc4ccccc4)ncnc32)nn1	UACC-62	44.5 µM (inactive)
O=[N+]([O-])c1ccc2c(c1)S(=O)(=O)N1Cc3ccccc3CCN21	UACC-62	> 100 µM (inactive)
C=C=C(C(=O)OC)[S+]([O-])c1ccccc1[N+](=O)[O-] (centres undefined)	UACC-62	> 100 µM (inactive)
COc1cc2c(cc1OC)C(Cl)C(c1ccc(Cl)c(Cl)c1)=C2Cl (centres undefined)	UACC-62	4.37 µM (inactive)
CCC1(c2ccc(OC)c(OC)c2)CCN(S(=O)(=O)c2ccc(C)cc2)C1 (centres undefined)	UACC-62	> 100 µM (inactive)
CCOc1ccccc1NC(=O)/C=C1\NC(=O)CS1	UACC-62	> 100 µM (inactive)
CCOC1c2nc3ccccc3nc2-c2ccccc2N1C(C)=O (centres undefined)	UACC-62	> 100 µM (inactive)
c1ccc2c(c1)CCc1c(-c3n[nH]c4c3CCc3ccccc3-4)n[nH]c1-2	UACC-62	> 100 µM (inactive)
COc1ccc2c3c1OC1C(=O)C=CC4(O)C(C2)NCC[C@@]314 (some centres undefined)	UACC-62	3.44 µM (inactive)
Nc1n[n+]([O-])c2ccccc2[n+]1[O-]	UACC-62	61.7 µM (inactive)
C[C@]12Cc3cn[nH]c3C(=O)C1CC[C@@H]1C2CC[C@@]2(C)C1CC[C@]2(C)O (some centres undefined)	UACC-62	> 100 µM (inactive)
CC1=CC(=O)/C(=C/n2c(=S)[nH]c3ccccc32)C(=O)O1	UACC-62	> 100 µM (inactive)

---

Measured GI50 by item
system: SF-295; experiment: NCI tumour cell line growth inhibition, 48 h
Calls of active or inactive are those of the source. No stated cut-off is given here; in the data, active = GI50 up to about 1.1 µM and inactive = higher.
Outcome measure: GI50

Compound	Result
COC(=O)c1cc(O)ccc1NC(=O)c1ccc(O)cc1	> 100 µM (inactive)
CC1(C)C(CCO)CC1n1cc(I)c(=O)[nH]c1=O (configuration not stated)	> 100 µM (inactive)
CC(=O)NC1C(Sc2ncn(C3OC(CO)C(O)C(O)C3NC(C)=O)n2)OC(CO)C(O)C1O (configuration not stated)	> 100 µM (inactive)
COc1ccc(OC(C)=O)c2c1CCC=CC2=O	20.9 µM (inactive)
C[C@]12CC[C@H](OC(=O)Nc3ccccc3)CC1=CC[C@@H]1C2CC[C@]2(C)/C(=N/OC(=O)Nc3ccccc3)CCC12 (some centres not stated)	10 µM (inactive)
COc1cc2c(cc1O)C(=O)O[C@@H]1CC=C3CCN(C)[C@H]3[C@H]21	> 25 µM (inactive)
COc1cc(-c2oc(/C=N/c3ccccc3)c([N+](=O)[O-])c2-c2ccc(O)c(OC)c2)ccc1O	31.6 µM (inactive)
O=C1C=CC2(C=C1)C[C@H](NC(=O)C(F)(F)F)C(=O)O2	> 100 µM (inactive)
O=c1[nH]c(Br)nc2c(N3CCCCC3)c[nH]c12	> 100 µM (inactive)
CCOC(=O)c1csc(NC(=O)CN2CCOCC2)n1	> 100 µM (inactive)
Nc1nc(Cl)cc(NCC2(CO)CCC(O)C2)n1 (configuration not stated)	> 100 µM (inactive)
CCC1C(C#N)=C(N)OC2=C1C(=O)CC(C)(C)C2 (configuration not stated)	> 100 µM (inactive)

---

Catalogue of molecules with associated GI50
tested on: OVCAR-4; assay: NCI tumour cell line growth inhibition, 48 h
Calls of active or inactive are those of the source. No stated cut-off is given here; in the data, active = GI50 up to about 1.1 µM and inactive = higher.

Molecule	GI50
C[C@H]1C=C2[C@@H]3CC(C)(C(=O)O)CC[C@]3(C)CC[C@]2(C)[C@]2(C)CC[C@H]3C(C)(C)[C@@H](OC(=O)c4cccc5c(=O)c6ccccc6[nH]c45)CC[C@]3(C)[C@@H]12 (some centres undefined)	80.4 µM (inactive)
CCOP(=O)(OCC)C(Nc1cccc([N+](=O)[O-])c1)c1ccccc1 (centres undefined)	> 100 µM (inactive)
COc1ccc(C2c3cc4c(cc3OC(O)(CO)C2C(=O)O)OCO4)cc1.COc1ccc(C2c3cc4c(cc3OC3(O)COC(=O)C23)OCO4)cc1 (centres undefined)	> 100 µM (inactive)
c1ccc2c(Cc3c[nH]c4ccccc34)c[nH]c2c1 [ARUNDINE]	17.8 µM (inactive)
Cc1cc(Cl)nc2ccc(Cc3ccc4nc(Cl)cc(C)c4c3)cc12	34.8 µM (inactive)
CCOC(=O)c1csc(NC(=O)CN2CCOCC2)n1	> 100 µM (inactive)
CCOC(=O)C(Cc1ccccc1)(Cc1ccc(O)cn1)NC(=O)c1ccccc1 (centres undefined)	27.4 µM (inactive)
Cc1ccc(S(=O)(=O)N/N=C(\c2nc3ccc(Cl)cc3nc2O)C(O)c2cccc([N+](=O)[O-])c2)cc1 (centres undefined)	> 100 µM (inactive)
O=C1CC(c2ccco2)C2(C(=O)NC(=O)NC2=O)C(c2ccco2)C1 (centres undefined)	> 75 µM (inactive)

---

tested on: A549; assay: NCI tumour cell line growth inhibition, 48 h
Calls of active or inactive are those of the source. No stated cut-off is given here; in the data, active = GI50 up to about 1.1 µM and inactive = higher.

Molecule	GI50
COC(=O)c1cc(O)ccc1NC(=O)c1ccc(O)cc1	> 100 µM (inactive)
Nc1nc(-c2cccs2)cs1	58.6 µM (inactive)
COc1cc(-c2cc(=O)c3c(O)c(OC)c(OC)c(OC)c3o2)ccc1O	27.3 µM (inactive)
O=C1NC(N2CCOCC2)=N/C1=C\c1ccc(O)cc1	> 100 µM (inactive)
O=C(O)C1=NN(c2ccc(S(=O)(=O)O)cc2)C2(C1)SCC(=O)N2c1nc2ccccc2s1 (stereo not drawn)	> 100 µM (inactive)
O=C(c1ccccc1)N1N=C(C(F)(F)F)CC1(O)C(F)(F)F (stereo not drawn)	> 100 µM (inactive)
Cc1ccccc1NC(=O)/C(C#N)=N\Nc1[nH]cnc1C(N)=O	> 100 µM (inactive)
N#CC(c1ccc(Cl)cc1)c1c(=O)[nH]c2ccc(N)cc2[n+]1[O-] (stereo not drawn)	> 100 µM (inactive)
O=C1c2ccccc2C(=O)N1c1ccc(OCCN2CCCCC2)cc1	> 100 µM (inactive)
N#CC(/C(=N/NC(=O)C(=O)NN)C(=O)NC12CC3CC(CC(C3)C1)C2)c1ccccc1 (stereo not drawn)	> 100 µM (inactive)
NNC(=O)c1cc([N+](=O)[O-])ccc1NC(=O)C12CC3CC(CC(C3)C1)C2	17.8 µM (inactive)
COc1cc(Cn2c(=S)ss/c2=N\C(=S)N(C)C)cc(OC)c1OC	13.2 µM (inactive)
COc1ccc2c3c(coc13)C(CCC(=O)O)CC2 (stereo not drawn)	> 100 µM (inactive)
COC(=N)C12C(N)=NC(OC)(OC)C1(C#N)C21C(=O)N(c2ccccc2)N=C1C (stereo not drawn)	> 100 µM (inactive)
CCOC(=O)/C(=C\c1ccccc1)C(=O)O	> 100 µM (inactive)
CCN1CCC(O)(c2ccc(Oc3ccc(Cl)cc3)cc2)C(C(=O)c2ccc(Oc3ccc(Cl)cc3)cc2)C1 (stereo not drawn)	6.97 µM (inactive)
CC(C)(Oc1ccc(/C=C/C(=O)c2ccc(Cl)cc2)cc1)C(=O)Nc1c(Cl)cccc1Cl	31.4 µM (inactive)
O=C(O)/C=C\C(=O)Nc1ccccn1	> 100 µM (inactive)
COc1ccc(-c2cc(=O)c3c(O)cc(C)cc3o2)cc1OC	> 100 µM (inactive)
COCC12CCC(OC)C34C5CC6(O)C(OC)CC(OC(C)=O)(C5C6OC(=O)c5ccccc5)C(C(OC)C13)C4N(C)C2 (stereo not drawn)	> 100 µM (inactive)
O=c1oc2ccccc2cc1-c1cc2ccccn2c1	> 100 µM (inactive)
O=C(OC1C=C=CS(=O)(=O)CC#C/C=C\1)c1cnc2ccccc2n1 (stereo not drawn)	> 100 µM (inactive)
O=C(Oc1c(I)ccccc1=O)c1ccc([N+](=O)[O-])cc1	21.6 µM (inactive)
